Source listed as patent US5780589A.

Each item that follows carries a reported Ki.
# testedSystem: μ receptor (Rattus norvegicus, UniProt P33535)
# Construct: Rat membrane synaptosome preparations (P2 fraction) were prepared as detailed previously; from tissue; host or cells: rat synaptosomal membranes (P2 fraction)
# Sequence (P33535 whole entry): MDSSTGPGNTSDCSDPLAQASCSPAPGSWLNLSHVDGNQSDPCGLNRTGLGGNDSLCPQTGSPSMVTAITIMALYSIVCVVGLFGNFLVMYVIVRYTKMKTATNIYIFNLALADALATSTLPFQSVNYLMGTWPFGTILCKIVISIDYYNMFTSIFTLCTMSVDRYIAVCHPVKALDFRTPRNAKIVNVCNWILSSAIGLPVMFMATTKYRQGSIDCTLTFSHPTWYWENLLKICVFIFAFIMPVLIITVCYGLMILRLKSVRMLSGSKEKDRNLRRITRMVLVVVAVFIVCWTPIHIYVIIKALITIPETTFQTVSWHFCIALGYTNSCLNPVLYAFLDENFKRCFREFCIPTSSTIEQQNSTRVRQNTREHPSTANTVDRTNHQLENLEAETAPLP
# procedureSummary: μ receptor binding, rat membrane synaptosomes, [3H]DAGO
# appliedConditions: rat synaptosomes (P2), mean ± SEM
Non-standard residues stand in square brackets, D forms with d. Residues, ends and D or L forms follow the SMILES beside them. Dmt = Cc1cc(O)cc(C)c1C[C@H](N)C(=O)O; Tic = O=C(O)[C@@H]1Cc2ccccc2CN1; dTic = O=C(O)[C@H]1Cc2ccccc2CN1
assayMetric: Ki (nM)

{"columns": ["molecule", "observedResult"],
 "data": [
  ["Cc1cc(O)cc(C)c1C[C@H](N)C(=O)N1Cc2ccccc2C[C@@H]1C(=O)O [Peptide 3, Dmt-D-Tic-OH] (H-[Dmt]-[dTic]-OH; N-terminus assumed)", 224],
  ["Cc1cc(O)cc(C)c1C[C@H](N)C(=O)N1Cc2ccccc2C[C@H]1CO [Peptide 5, Dmt-Tic--CH2 OH]", 151],
  ["Cc1cc(O)cc(C)c1C[C@@H]1NC(=O)[C@H]2Cc3ccccc3CN2C1=O [Peptide 7, c(Dmt-D-Tic)]", 728],
  ["Cc1cc(O)cc(C)c1C[C@H](N)C(=O)N1Cc2ccccc2C[C@@H]1C(=O)N[C@@H](C)C(=O)O [Peptide 10, Dmt-D-Tic-Ala-OH] (H-[Dmt]-[dTic]-Ala-OH)", 82.8],
  ["Cc1cc(O)cc(C)c1C[C@H](N)C(=O)N1Cc2ccccc2C[C@H]1C(=O)N[C@@H](C)C(=O)O [Peptide 8, Dmt-Tic-Ala-OH] (H-[Dmt]-[Tic]-Ala-OH)", 5810],
  ["Cc1cc(O)cc(C)c1C[C@@H]1NC(=O)[C@@H]2Cc3ccccc3CN2C1=O [Peptide 6, c(Dmt-Tic)]", 635]
]}
